Values were extracted from patent US9365619B2.

target: human IgG; test: Surface plasmon resonance (SPR) analysis of synthetic peptide binding to human IgG; conditions: SPR, synthetic peptide binding to human IgG; read-out: Kd
Bridge positions count the residues as written; N and C are the ends. Peptide text beside a SMILES is read from it.
READOUT_TYPE: pKd
In simple prose, pKd is minus the logarithm base ten of a concentration in moles per litre.

Below are worked cases with known answers.
[ask] Look up pKd for this compound: CC(C)C[C@@H]1NC(=O)[C@H](CC(N)=O)NC(=O)CNC(=O)[C@H](CC(N)=O)NC(=O)[C@H]([C@@H](C)O)NC(=O)[C@H](Cc2ccc(O)cc2)NC(=O)[C@H]([C@@H](C)O)NC(=O)[C@@H](NC(=O)[C@@H](N)CCCNC(=N)N)CSSC[C@@H](C(=O)N[C@H](C(N)=O)[C@@H](C)O)NC(=O)[C@H](Cc2c[nH]c3ccccc23)NC(=O)[C@H](C(C)C)NC1=O [GFc-C35-3/15 (D3R), RCTYTNGNLVWCT] (H-RCTYTNGNLVWCT-NH2; disulfide 2-12)
[reply] 4.16

[ask] State the recorded pKd for this entry: CC[C@H](C)[C@@H]1NC(=O)[C@H](CC(C)C)NC(=O)[C@H](CC(N)=O)NC(=O)CNC(=O)[C@H](CC(N)=O)NC(=O)[C@H]([C@@H](C)O)NC(=O)[C@H](Cc2ccc(O)cc2)NC(=O)[C@H]([C@@H](C)O)NC(=O)[C@@H](NC(=O)[C@@H](N)CC(=O)O)CSSC[C@@H](C(=O)N[C@H](C(N)=O)[C@@H](C)O)NC(=O)[C@H](Cc2c[nH]c3ccccc23)NC1=O [GFc-C35-3/15 (V12I), DCTYTNGNLIWCT] (H-DCTYTNGNLIWCT-NH2; disulfide 2-12)
[reply] 4.92

[ask] Query: pKd; subject: CC(C)C[C@@H]1NC(=O)[C@H](CCC(=O)O)NC(=O)CNC(=O)[C@H](CCCNC(=N)N)NC(=O)[C@H](Cc2c[nH]cn2)NC(=O)[C@H](Cc2c[nH]c3ccccc23)NC(=O)[C@H](C)NC(=O)[C@@H](NC(=O)[C@@H](N)CC(=O)O)CSSC[C@@H](C(=O)N[C@H](C(N)=O)[C@@H](C)O)NC(=O)[C@H](Cc2c[nH]c3ccccc23)NC(=O)[C@H](C(C)C)NC1=O [GFc-C35-3/15 (T5A, Y6W, T7H, N8R, N10E), DCAWHRGELVWCT]
[reply] 6.59

Now for another entry.
[ask] Give its pKd value. Item: CC(C)C[C@@H]1NC(=O)[C@H](CCC(N)=O)NC(=O)CNC(=O)[C@H](CC(N)=O)NC(=O)[C@H]([C@@H](C)O)NC(=O)[C@H](Cc2ccc(O)cc2)NC(=O)[C@H]([C@@H](C)O)NC(=O)[C@@H](NC(=O)[C@@H](N)CC(=O)O)CSSC[C@@H](C(=O)N[C@H](C(N)=O)[C@@H](C)O)NC(=O)[C@H](Cc2c[nH]c3ccccc23)NC(=O)[C@H](C(C)C)NC1=O [GFc-C35-3/15 (N10Q), DCTYTNGQLVWCT] (H-DCTYTNGQLVWCT-NH2; disulfide 2-12; N-terminus and C-terminus assumed)
[reply] 3.80

---

Measured Kd values are reported for all entries that follow.
molecular target: human IgG; assay: Surface plasmon resonance (SPR) analysis of synthetic peptide binding to human IgG; details: SPR, synthetic peptide binding to human IgG; read-out: Kd
Bridge positions count the residues as written; N and C are the ends. Peptide text beside a SMILES is read from it.
Provide the reading as a plain figure in µM.

[ask] Which Kd reading was recorded for the compound CC(C)C[C@@H]1NC(=O)[C@H](CC(N)=O)NC(=O)CNC(=O)[C@H](CC(N)=O)NC(=O)[C@H](CCCNC(=N)N)NC(=O)[C@H](Cc2ccc(O)cc2)NC(=O)[C@H]([C@@H](C)O)NC(=O)[C@@H](NC(=O)[C@@H](N)CC(=O)O)CSSC[C@@H](C(=O)N[C@H](C(N)=O)[C@@H](C)O)NC(=O)[C@H](Cc2c[nH]c3ccccc23)NC(=O)[C@H](C(C)C)NC1=O [GFc-C35-3/15 (T7R), DCTYRNGNLVWCT] (H-DCTYRNGNLVWCT-NH2; disulfide 2-12) ?
[reply] 83

We next turn to a different compound, shown below.
[ask] Bench note: what Kd did CC[C@H](C)[C@@H]1NC(=O)[C@H](CC(C)C)NC(=O)[C@H](CC(N)=O)NC(=O)CNC(=O)[C@H](CCCNC(=N)N)NC(=O)[C@H](Cc2c[nH]cn2)NC(=O)[C@H](Cc2ccc(O)cc2)NC(=O)[C@H]([C@@H](C)O)NC(=O)[C@@H](NC(=O)[C@@H](N)CC(=O)O)CSSC[C@@H](C(=O)N[C@H](C(N)=O)[C@@H](C)O)NC(=O)[C@H](Cc2c[nH]c3ccccc23)NC1=O [GFc-C35-3/15 (T7H, N8R, V12I), DCTYHRGNLIWCT] (H-DCTYHRGNLIWCT-NH2; disulfide 2-12) show?
[reply] 4.8
